Ref: patent US6512097

Assay system: T1, c-erbB-2 ECD with a Ser-Gly-His6 C-terminal fusion (UniProt P04626 23-652)
T1 construct: extracellular domain; Expressed from CHO cells, IMAC purified; coupled to a CM5 chip, coated on plates, or biotinylated with NHS-LC-biotin; also called c-erbB-2 extracellular domain; biotinylated c-erbB-2 ECD
Experiment summary: SPR BIAcore
# Kd listing for each entry below
All answers are understood in nM, so give the number only.

Use these answered entries as a reference point.
IN: What value of Kd has been recorded for this entry: C6ML3-21 (scFv) scFv: QVQLLQSGAELKKPGESLKISCKGSGYSFTSYWIAWVRQMPGKGLEYMGLIYPGDSDTKYSPSFQGQVTISVDKSVSTAYLQWSSLKPSDSAVYFCARHDVGYCSSSNCAKWPEYFQHWGQGTLVTVSSGGGGSGGGGSGGGGSQSVLTQPPSVSAAPGQKVTISCSGSSSNIGNNYVSWYQQLPGTAPKLLIYGHTNRPAGVPDRFSGSKSGTSASLAISGFRSEDEADYYCAAWDYSQSGWVFGGGTKLTVLG
OUT: 4.5

IN: And C6ML3-23 (scFv) scFv: QVQLLQSGAELKKPGESLKISCKGSGYSFTSYWIAWVRQMPGKGLEYMGLIYPGDSDTKYSPSFQGQVTISVDKSVSTAYLQWSSLKPSDSAVYFCARHDVGYCSSSNCAKWPEYFQHWGQGTLVTVSSGGGGSGGGGSGGGGSQSVLTQPPSVSAAPGQKVTISCSGSSSNIGNNYVSWYQQLPGTAPKLLIYGHTNRPAGVPDRFSGSKSGTSASLAISGFRSEDEADYYCASWDHSLWGWVFGGGTKLTVLG ?
OUT: 1.5

IN: And C6ML3-6 (scFv) scFv: QVQLLQSGAELKKPGESLKISCKGSGYSFTSYWIAWVRQMPGKGLEYMGLIYPGDSDTKYSPSFQGQVTISVDKSVSTAYLQWSSLKPSDSAVYFCARHDVGYCSSSNCAKWPEYFQHWGQGTLVTVSSGGGGSGGGGSGGGGSQSVLTQPPSVSAAPGQKVTISCSGSSSNIGNNYVSWYQQLPGTAPKLLIYGHTNRPAGVPDRFSGSKSGTSASLAISGFRSEDEADYYCASWDYSLSGWVFGGGTKLTVLG ?
OUT: 3.2

IN: And C6ML3-15 (scFv, also called C6M13-15) scFv: QVQLLQSGAELKKPGESLKISCKGSGYSFTSYWIAWVRQMPGKGLEYMGLIYPGDSDTKYSPSFQGQVTISVDKSVSTAYLQWSSLKPSDSAVYFCARHDVGYCSSSNCAKWPEYFQHWGQGTLVTVSSGGGGSGGGGSGGGGSQSVLTQPPSVSAAPGQKVTISCSGSSSNIGNNYVSWYQQLPGTAPKLLIYGHTNRPAGVPDRFSGSKSGTSASLAISGFRSEDEADYYCAAWDRPLWGWVFGGGTKLTVLG ?
OUT: 2.2

Others:
IN: What value of Kd has been recorded for this entry: C6ML3-12 (scFv, also called CML-3-12) scFv: QVQLLQSGAELKKPGESLKISCKGSGYSFTSYWIAWVRQMPGKGLEYMGLIYPGDSDTKYSPSFQGQVTISVDKSVSTAYLQWSSLKPSDSAVYFCARHDVGYCSSSNCAKWPEYFQHWGQGTLVTVSSGGGGSGGGGSGGGGSQSVLTQPPSVSAAPGQKVTISCSGSSSNIGNNYVSWYQQLPGTAPKLLIYGHTNRPAGVPDRFSGSKSGTSASLAISGFRSEDEADYYCAAWDYSRSGWVFGGGTKLTVLG
OUT: 1.6
